Biological target: recombinant human ACC2 (Homo sapiens (Human))
Sequence (O00763 27-2458): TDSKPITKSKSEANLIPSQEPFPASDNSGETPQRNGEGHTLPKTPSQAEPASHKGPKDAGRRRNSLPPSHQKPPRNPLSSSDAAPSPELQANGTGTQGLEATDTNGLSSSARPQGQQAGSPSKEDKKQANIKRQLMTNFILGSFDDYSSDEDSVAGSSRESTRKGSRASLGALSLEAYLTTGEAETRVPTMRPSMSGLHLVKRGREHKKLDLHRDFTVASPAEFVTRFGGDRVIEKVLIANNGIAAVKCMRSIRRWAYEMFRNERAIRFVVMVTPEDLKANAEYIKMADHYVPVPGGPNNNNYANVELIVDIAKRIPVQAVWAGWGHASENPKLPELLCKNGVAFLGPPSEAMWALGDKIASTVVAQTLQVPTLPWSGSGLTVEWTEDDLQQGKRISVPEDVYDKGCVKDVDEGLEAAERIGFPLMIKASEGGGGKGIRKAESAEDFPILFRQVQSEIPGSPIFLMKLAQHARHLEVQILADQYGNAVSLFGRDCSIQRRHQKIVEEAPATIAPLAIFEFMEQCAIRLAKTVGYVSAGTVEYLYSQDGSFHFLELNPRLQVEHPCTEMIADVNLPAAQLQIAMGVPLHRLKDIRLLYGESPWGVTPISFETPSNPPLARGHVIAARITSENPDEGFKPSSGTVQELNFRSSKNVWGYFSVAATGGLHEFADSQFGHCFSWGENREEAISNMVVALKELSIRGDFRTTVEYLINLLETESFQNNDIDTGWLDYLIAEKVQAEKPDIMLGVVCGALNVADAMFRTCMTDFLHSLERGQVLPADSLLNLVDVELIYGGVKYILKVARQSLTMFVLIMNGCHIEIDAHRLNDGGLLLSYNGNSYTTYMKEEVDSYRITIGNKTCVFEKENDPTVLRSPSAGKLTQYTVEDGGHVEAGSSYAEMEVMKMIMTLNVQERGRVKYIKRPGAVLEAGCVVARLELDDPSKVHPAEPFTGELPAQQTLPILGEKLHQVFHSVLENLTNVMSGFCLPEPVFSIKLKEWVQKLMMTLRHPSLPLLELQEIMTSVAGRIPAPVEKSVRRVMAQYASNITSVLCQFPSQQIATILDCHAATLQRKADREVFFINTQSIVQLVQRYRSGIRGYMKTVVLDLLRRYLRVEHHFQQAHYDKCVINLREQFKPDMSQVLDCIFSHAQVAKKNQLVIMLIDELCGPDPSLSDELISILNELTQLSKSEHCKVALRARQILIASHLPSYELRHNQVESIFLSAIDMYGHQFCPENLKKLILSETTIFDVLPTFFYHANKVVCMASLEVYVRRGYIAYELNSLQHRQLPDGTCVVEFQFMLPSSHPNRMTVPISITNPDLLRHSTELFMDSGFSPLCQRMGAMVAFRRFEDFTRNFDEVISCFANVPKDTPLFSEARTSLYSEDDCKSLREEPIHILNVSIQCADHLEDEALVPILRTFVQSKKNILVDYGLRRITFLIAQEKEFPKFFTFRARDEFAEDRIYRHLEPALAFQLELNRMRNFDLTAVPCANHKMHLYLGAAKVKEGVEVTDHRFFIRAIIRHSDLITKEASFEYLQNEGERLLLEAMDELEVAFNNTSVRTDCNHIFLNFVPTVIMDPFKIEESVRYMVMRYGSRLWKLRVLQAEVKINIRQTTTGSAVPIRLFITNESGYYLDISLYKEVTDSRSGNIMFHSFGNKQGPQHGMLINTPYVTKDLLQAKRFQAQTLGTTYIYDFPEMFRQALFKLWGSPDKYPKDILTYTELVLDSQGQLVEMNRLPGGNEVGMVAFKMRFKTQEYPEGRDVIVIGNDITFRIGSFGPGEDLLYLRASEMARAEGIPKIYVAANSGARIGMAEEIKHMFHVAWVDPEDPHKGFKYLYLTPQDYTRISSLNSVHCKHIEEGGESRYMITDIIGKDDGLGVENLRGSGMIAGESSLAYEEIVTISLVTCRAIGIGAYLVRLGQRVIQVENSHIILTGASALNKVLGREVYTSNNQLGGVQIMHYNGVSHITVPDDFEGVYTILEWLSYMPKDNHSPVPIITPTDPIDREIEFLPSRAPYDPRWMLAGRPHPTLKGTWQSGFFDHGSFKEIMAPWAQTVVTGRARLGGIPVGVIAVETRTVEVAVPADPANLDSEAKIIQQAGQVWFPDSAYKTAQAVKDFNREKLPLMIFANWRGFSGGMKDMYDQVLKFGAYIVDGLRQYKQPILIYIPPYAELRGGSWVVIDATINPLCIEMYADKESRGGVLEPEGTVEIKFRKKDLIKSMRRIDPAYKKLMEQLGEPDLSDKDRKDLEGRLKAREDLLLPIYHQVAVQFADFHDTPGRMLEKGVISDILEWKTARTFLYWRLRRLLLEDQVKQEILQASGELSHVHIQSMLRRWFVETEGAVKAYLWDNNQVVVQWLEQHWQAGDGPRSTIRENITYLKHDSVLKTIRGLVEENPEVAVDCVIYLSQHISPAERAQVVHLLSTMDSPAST
Experiment: Measurement of inhibitory activity on human ACC2 (MALDI-TOF MS, conversion of acetyl CoA to malonyl CoA)
Settings: recombinant human ACC2, room temperature, 1 to 3 hours
MEASURED QUANTITY: IC50 (nM)
Value expressed in nM; do not type the unit.

{"SMILES INPUT": "CC(=O)N[C@@H](C)CC[C@H]1OC[C@H](Oc2nc3c(F)cc(OC4CC4)cc3n2C)CO1", "SYSTEM UNDER TEST": "recombinant human ACC2 (Homo sapiens (Human))", "IC50 (nM)": 6.6}
{"SMILES INPUT": "CC(=O)N[C@@H](CF)CO[C@H]1CC[C@H](Oc2nc3cnc(OC4CC4)c(F)c3n2C)CC1", "SYSTEM UNDER TEST": "recombinant human ACC2 (Homo sapiens (Human))", "IC50 (nM)": 7.2}
{"SMILES INPUT": "CC(=O)N[C@@H](C)CO[C@H]1CC[C@H](Oc2nc3c(C#N)cc(OC4CCC4)c(F)c3n2C)CC1", "SYSTEM UNDER TEST": "recombinant human ACC2 (Homo sapiens (Human))", "IC50 (nM)": 6.1}

Endpoint output: IC50 of `CC(=O)N[C@@H](C)CO[C@H]1CC[C@H](Oc2nc3cc(F)c(Cl)cc3n2C)CC1` . Value?
64

Endpoint output: IC50 of `CC(=O)N[C@@H](CF)CO[C@H]1CC[C@H](Oc2nc3c(F)cc(OCC(F)F)c(Cl)c3n2C)CC1` . Value?
4.6

Endpoint output: IC50 of `CC(=O)N[C@@H](C)CO[C@H]1CC[C@H](Oc2nc3ccc(OC4(C)CC4)cc3n2C)CC1` . Value?
17

Endpoint output: IC50 of `CC(=O)N[C@@H](C)CO[C@H]1CC[C@H](Oc2nc3c(F)cc(OCC(C)(C)C#N)c(F)c3n2C)CC1` . Value?
26

Origin of measurements: patent US10233156B2
